Source: the supplement of paper PMC3545927

Measured furin cleavage Z-score accompanies every entry in the list below.
subjectOfTest: furin, P09958
Sequence (P09958 whole entry): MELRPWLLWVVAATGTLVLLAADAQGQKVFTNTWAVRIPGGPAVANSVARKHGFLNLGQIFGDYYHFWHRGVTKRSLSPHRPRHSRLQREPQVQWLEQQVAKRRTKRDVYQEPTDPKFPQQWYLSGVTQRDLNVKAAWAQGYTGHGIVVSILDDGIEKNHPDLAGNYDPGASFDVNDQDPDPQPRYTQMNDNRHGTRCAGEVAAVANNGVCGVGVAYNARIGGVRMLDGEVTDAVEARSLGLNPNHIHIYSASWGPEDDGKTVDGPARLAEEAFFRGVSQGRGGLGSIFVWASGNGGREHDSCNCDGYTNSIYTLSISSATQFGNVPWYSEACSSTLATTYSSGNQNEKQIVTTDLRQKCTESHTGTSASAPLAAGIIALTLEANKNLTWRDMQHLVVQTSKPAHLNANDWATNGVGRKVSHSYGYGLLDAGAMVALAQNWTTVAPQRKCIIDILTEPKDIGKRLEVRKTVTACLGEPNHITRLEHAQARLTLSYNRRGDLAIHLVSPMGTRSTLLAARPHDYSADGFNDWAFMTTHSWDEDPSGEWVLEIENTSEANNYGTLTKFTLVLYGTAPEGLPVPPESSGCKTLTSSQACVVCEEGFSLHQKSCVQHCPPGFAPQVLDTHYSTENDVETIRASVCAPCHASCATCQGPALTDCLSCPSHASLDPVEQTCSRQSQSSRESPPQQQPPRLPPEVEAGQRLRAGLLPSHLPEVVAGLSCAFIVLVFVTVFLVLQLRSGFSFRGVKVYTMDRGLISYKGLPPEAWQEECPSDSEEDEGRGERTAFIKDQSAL
method: furin cleavage Z-score vs untreated control; higher = more cleavage, active = 3.5 or more, inactive = 1 or less, 8 variable residues between constant flanks;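 note: purified furin at 1:10 enzyme:substrate in 50 mM HEPES pH 7.5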
recordedConditions: 7.5 min
The list shows a part of the results. How many sequences the whole screen found active is unknown.
readoutName: furin cleavage Z-score

1) CARRQVWKRRAGNASASA [FS-1161]; 0.586
2) CAMYECSQHLAGNASASA [HC1689]; 1.1
3) CASMLTDPSHAGNASASA [HC1247]; 0.787
4) CAGALRPRRGAGNASASA [FS-421]; 1.31
5) CAVLCCSMSYAGNASASA [HC2005]; 0.0781
6) CAIVVTSTWVAGNASASA [HC2144]; 0.282
7) CAREKRGWTMAGNASASA [FS-2549]; 0.613
8) CASTACSAHLAGNASASA [HC2503]; 0.199
9) CAHGLVSFLVAGNASASA [HC542]; 0.693
10) CARRIRFVGRAGNASASA [FS-3261]; 0.201
11) CAYFVRVQGLAGNASASA [HC616]; 0.749
12) CARQIRYSVPAGNASASA [FS-1767]; 0.304
13) CARQIRGLEEAGNASASA [FS-2443]; 0.837
14) CAPGRRPRRGAGNASASA [FS-68]; 10.4
15) CARFLRSKTLAGNASASA [FS-2415]; 0.914
16) CARFLRSVMSAGNASASA [FS-1821]; 1.23
17) CADMMMNWSPAGNASASA [HC321]; -1.68
18) CAKNSRKLRGAGNASASA [FS-258]; 0.0851
19) CAEVVTSTTVAGNASASA [HC2238]; -0.88
20) CAEEECSQHLAGNASASA [HC1672]; 0.0201
21) CAGDPPQPEYAGNASASA [HC1546]; -0.406
22) CAEPPRPRRGAGNASASA [FS-992]; -0.496
23) CANYTFALWRAGNASASA [HC1199]; -0.0905
24) CARMLRSVFSAGNASASA [FS-1831]; -0.826
25) CARFIRSVMSAGNASASA [FS-3246]; 5.54
26) CARFFRSACSAGNASASA [FS-1820]; 0.97
27) CARQKRSIVVAGNASASA [FS-2507]; 7.83
28) CAREKRGLFGAGNASASA [FU1]; 0.425
29) CARSKRTEQDAGNASASA [FS-2088]; -0.228
30) CARQKREIDVAGNASASA [FS-3035]; 10.8
